- test system: Large T antigen (Simian virus 40, UniProt P03070);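 also: Confirmatory-stage PubChem screen for compounds that inhibit SV40 T antigen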
- Sequence (P03070 whole entry): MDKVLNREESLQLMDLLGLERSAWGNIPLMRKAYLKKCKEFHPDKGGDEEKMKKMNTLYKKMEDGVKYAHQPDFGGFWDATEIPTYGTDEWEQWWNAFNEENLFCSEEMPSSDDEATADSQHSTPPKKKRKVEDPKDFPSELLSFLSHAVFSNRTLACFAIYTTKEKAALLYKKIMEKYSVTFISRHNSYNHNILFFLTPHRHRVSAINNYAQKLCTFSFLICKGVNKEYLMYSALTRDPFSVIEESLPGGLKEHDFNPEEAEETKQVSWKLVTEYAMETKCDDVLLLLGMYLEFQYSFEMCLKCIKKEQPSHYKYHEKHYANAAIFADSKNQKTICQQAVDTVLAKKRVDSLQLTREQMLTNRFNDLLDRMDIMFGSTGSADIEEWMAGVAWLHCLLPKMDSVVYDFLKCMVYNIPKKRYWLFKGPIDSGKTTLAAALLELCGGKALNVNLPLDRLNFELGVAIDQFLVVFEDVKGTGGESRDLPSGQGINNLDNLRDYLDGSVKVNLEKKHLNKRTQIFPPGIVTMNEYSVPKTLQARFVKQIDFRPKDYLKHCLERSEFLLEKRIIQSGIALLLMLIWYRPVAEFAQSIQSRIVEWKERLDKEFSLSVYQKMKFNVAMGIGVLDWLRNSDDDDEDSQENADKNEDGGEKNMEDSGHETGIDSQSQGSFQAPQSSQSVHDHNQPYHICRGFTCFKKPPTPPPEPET
- Format: functional, Betapolyomavirus macacae
Activity calls are given as the source filed them.
This section presents compounds with their documented IC50 values.

// below: answered compounds
{"columns": ["compound", "IC50"],
 "data": [
  ["COc1ccc(N2CSC3=C(C#N)C(c4cccc(OC)c4OC)CC(=O)N3C2)cc1 (stereo not drawn)", "12.3 µM (active)"],
  ["Nc1cc(CN2C(=O)c3ccccc3C2=O)cc(Cl)c1O", "8.42 µM (active)"],
  ["O=C(Nc1ccc(Cl)c(Cl)c1)Oc1ccc(NC(=O)c2ccco2)cc1", "> 100 µM (active)"],
  ["O=C(Cn1c(=O)oc2ccccc21)Nc1nnc(S)s1", "59.4 µM (active)"],
  ["Nc1nc(-c2ccco2)cs1", "79.2 µM (active)"],
  ["Oc1ccc(/C=N/NC(=S)NCCN2CCOCC2)c(O)c1", "7.26 µM (active)"]
]}

Task item: Query (compound): COc1ccc(NCCc2ccccn2)cc1 ; field requested: IC50
Reply: 19.3 µM (active)

Task item: Query (compound): CC(C)C(=O)Nc1ccc(O)c(-c2csc(N)n2)c1 ; field requested: IC50
Reply: 46.3 µM (active)
